target: NEIL1 TA S207A;S306A;S61A (human) (UniProt Q96FI4)
Sequence (Q96FI4 whole entry S61A/S207A/S306A): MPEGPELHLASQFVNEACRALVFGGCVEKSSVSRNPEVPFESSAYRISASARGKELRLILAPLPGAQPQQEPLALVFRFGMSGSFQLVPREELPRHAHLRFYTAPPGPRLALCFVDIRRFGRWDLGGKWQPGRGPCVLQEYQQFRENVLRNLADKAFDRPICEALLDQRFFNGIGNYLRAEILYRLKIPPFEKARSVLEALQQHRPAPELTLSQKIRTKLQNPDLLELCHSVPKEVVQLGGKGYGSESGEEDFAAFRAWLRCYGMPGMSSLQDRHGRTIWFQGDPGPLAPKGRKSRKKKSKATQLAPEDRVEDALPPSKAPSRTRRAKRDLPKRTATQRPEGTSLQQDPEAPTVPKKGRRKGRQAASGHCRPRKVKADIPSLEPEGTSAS
assay: EMSA
recorded.conditions: tetrahydrofuran (abasic site analog) at position 14 of strand 1 (N), opposite C; EMSA: 10 pM 32P-DNA, 0-600 nM enzyme, 10% native PAGE, 2 h at 10 mA; binding buffer, salt, pH and temperature not stated; one-site specific binding fit (Prism …)
quantity.kind: Kd (µM)
Provide only the numeric value, understood in µM.

Problem: What value of Kd has been recorded for this entry: TGTCAATAGCAAGNGGAGAAGTCAATCGTGAGTCT / AGACTCACGATTGACTTCTCCCCTTGCTATTGACA [35-mer Furan:C duplex]
Solution: 0.0132

----------
target: NEIL1 DA S207A;S306A (human)
assay: EMSA
recorded.conditions: tetrahydrofuran (abasic site analog) at position 14 of strand 1 (N), opposite C; EMSA: 10 pM 32P-DNA, 0-600 nM enzyme, 10% native PAGE, 2 h at 10 mA; binding buffer, salt, pH and temperature not stated; one-site specific binding fit (Prism …)
quantity.kind: Kd

Problem: Param readout= Kd; system= NEIL1 DA S207A;S306A (human); entry= TGTCAATAGCAAGNGGAGAAGTCAATCGTGAGTCT / AGACTCACGATTGACTTCTCCCCTTGCTATTGACA [35-mer Furan:C duplex] ; returns value.
Solution: 10.8 nM

----------
target: NEIL1 S306A S306A (human)
assay: EMSA
recorded.conditions: upper bands may lower Kd; tetrahydrofuran (abasic site analog) at position 14 of strand 1 (N), opposite C; EMSA: 10 pM 32P-DNA, 0-600 nM enzyme, 10% native PAGE, 2 h at 10 mA; binding buffer, salt, pH and temperature not stated; one-site specific binding fit (Prism …)
quantity.kind: pKd
pKd is defined as minus the log10 of a concentration measured in mol/L.

Problem: Notebook: pull reported pKd for NEIL1 S306A S306A (human), entry TGTCAATAGCAAGNGGAGAAGTCAATCGTGAGTCT / AGACTCACGATTGACTTCTCCCCTTGCTATTGACA [35-mer Furan:C duplex]
Solution: 8.64

----------
target: NEIL1 S61A S61A (human)
assay: EMSA
recorded.conditions: tetrahydrofuran (abasic site analog) at position 14 of strand 1 (N), opposite C; EMSA: 10 pM 32P-DNA, 0-600 nM enzyme, 10% native PAGE, 2 h at 10 mA; binding buffer, salt, pH and temperature not stated; one-site specific binding fit (Prism …)
quantity.kind: Kd (nM)
Number in nM, nothing else.

Problem: For NEIL1 S61A S61A (human), provide Kd of TGTCAATAGCAAGNGGAGAAGTCAATCGTGAGTCT / AGACTCACGATTGACTTCTCCCCTTGCTATTGACA [35-mer Furan:C duplex] please.
Solution: 16.2

----------
target: NEIL1 S207E S207E (human) (UniProt Q96FI4)
Sequence (Q96FI4 whole entry S207E): as the sequence (Q96FI4 whole entry S61A/S207A/S306A) above, with A61S, A207E, A306S counted along it
assay: EMSA
recorded.conditions: tetrahydrofuran (abasic site analog) at position 14 of strand 1 (N), opposite C; EMSA: 10 pM 32P-DNA, 0-600 nM enzyme, 10% native PAGE, 2 h at 10 mA; binding buffer, salt, pH and temperature not stated; one-site specific binding fit (Prism …)
quantity.kind: Kd (nM)
Use nM as the unit, but write only the number.

Problem: Item: TGTCAATAGCAAGNGGAGAAGTCAATCGTGAGTCT / AGACTCACGATTGACTTCTCCCCTTGCTATTGACA [35-mer Furan:C duplex] Test system: NEIL1 S207E S207E (human) (UniProt Q96FI4) Read-out: Kd Value: ?
Solution: 4.5

----------
target: NEIL1 TE S207E;S306E;S61E (human)
assay: EMSA
recorded.conditions: upper bands may lower Kd; tetrahydrofuran (abasic site analog) at position 14 of strand 1 (N), opposite C; EMSA: 10 pM 32P-DNA, 0-600 nM enzyme, 10% native PAGE, 2 h at 10 mA; binding buffer, salt, pH and temperature not stated; one-site specific binding fit (Prism …)
quantity.kind: Kd
Provide the measurement as a number trailed by its unit.

Problem: Find the recorded Kd belonging to TGTCAATAGCAAGNGGAGAAGTCAATCGTGAGTCT / AGACTCACGATTGACTTCTCCCCTTGCTATTGACA [35-mer Furan:C duplex] and report it.
Solution: 1.3 nM

----------
target: NEIL1 S306E S306E (human)
assay: EMSA
recorded.conditions: tetrahydrofuran (abasic site analog) at position 14 of strand 1 (N), opposite C; EMSA: 10 pM 32P-DNA, 0-600 nM enzyme, 10% native PAGE, 2 h at 10 mA; binding buffer, salt, pH and temperature not stated; one-site specific binding fit (Prism …)
quantity.kind: pKd
Keep in mind that pKd stands for -log10 of concentration in molar terms.

Problem: Reported pKd for NEIL1 S306E S306E (human), given TGTCAATAGCAAGNGGAGAAGTCAATCGTGAGTCT / AGACTCACGATTGACTTCTCCCCTTGCTATTGACA [35-mer Furan:C duplex] ?
Solution: 8.11

----------
target: NEIL1 S207A S207A (human) (UniProt Q96FI4)
Sequence (Q96FI4 whole entry S207A): as the sequence (Q96FI4 whole entry S61A/S207A/S306A) above, with A61S, A306S counted along it
assay: EMSA
recorded.conditions: multiple complexes (C1+C2+C3) quantified; tetrahydrofuran (abasic site analog) at position 14 of strand 1 (N), opposite C; EMSA: 10 pM 32P-DNA, 0-600 nM enzyme, 10% native PAGE, 2 h at 10 mA; binding buffer, salt, pH and temperature not stated; one-site specific binding fit (Prism …)
quantity.kind: Kd (nM)
Give the number; nM is assumed, so skip it.

Problem: Look at this sequence and give its reported Kd. TGTCAATAGCAAGNGGAGAAGTCAATCGTGAGTCT / AGACTCACGATTGACTTCTCCCCTTGCTATTGACA [35-mer Furan:C duplex]
Solution: 3.2
